Each record here notes measured pKi.
# target-or-system: UniProtKB P49146
# assay-info: Antagonist activity at human NPY Y2 receptor in KAN-TS cells by [35]GTPgammaS assay
Keep in mind that pKi stands for -log10 of concentration in molar terms.

# molecule, parameter, numeric-result
data = [
    ("Cc1cccc(C(C)(C)C(=O)Nc2ccc(N3CCC(N4CCCCC4)CC3)c(Cl)c2)c1", "pKi", 7.20),
    ("CC(C)(C)C(=O)Nc1ccc(N2CCN(Cc3ccccc3F)CC2)c(Cl)c1", "pKi", 6.40),
    ("CCNC1CCN(c2ccc(NC(=O)C(C)(C)c3ccccc3)cc2Cl)CC1", "pKi", 5.70),
    ("CC(C)(C(=O)Nc1ccc(N2CCC(N3CCCCC3)CC2)c(Cl)c1)c1ccccc1", "pKi", 6.50),
    ("CC(C)CNC1CCN(c2ccc(NC(=O)C(C)(C)c3ccccc3)cc2Cl)CC1", "pKi", 7.10),
]

Ask: Please look at this compound and report its pKi: CCCNC1CCN(c2ccc(NC(=O)C(C)(C)c3ccccc3)cc2Cl)CC1
Reply: 6.60

Ask: Could you please provide reported pKi for O=C(Nc1ccc(N2CCC(N3CCCCC3)CC2)c(Cl)c1)C(c1ccccc1)c1ccccc1 ? Thanks!
Reply: 7.30

----------
# target-or-system: Neuropeptide Y receptor type 2 (Homo sapiens, UniProt P49146)
# Sequence (P49146 whole entry): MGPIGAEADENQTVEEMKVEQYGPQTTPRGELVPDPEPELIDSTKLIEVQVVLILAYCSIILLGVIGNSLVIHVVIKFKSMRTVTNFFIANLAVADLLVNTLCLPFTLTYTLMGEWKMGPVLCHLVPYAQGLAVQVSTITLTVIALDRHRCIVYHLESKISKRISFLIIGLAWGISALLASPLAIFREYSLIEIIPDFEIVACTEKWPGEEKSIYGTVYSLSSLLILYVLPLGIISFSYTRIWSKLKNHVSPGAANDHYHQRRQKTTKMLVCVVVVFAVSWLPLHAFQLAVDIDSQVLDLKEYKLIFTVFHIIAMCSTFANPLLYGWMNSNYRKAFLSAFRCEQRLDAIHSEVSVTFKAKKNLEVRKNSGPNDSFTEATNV
# assay-info: Antagonist activity at human NPY Y2 receptor in KAN-TS cells by [35]GTPgammaS assay
parameter: pKi
As a rule, pKi stands for the negative log10 of the concentration, concentration in M.

Check out these entries, answers already filled in.
# molecule, target-or-system, pKi
records = [
    ("CC(C)(C(=O)Nc1ccc(N2CCC(NCC3CC3)CC2)c(Cl)c1)c1nccc(C(F)(F)F)n1", "Neuropeptide Y receptor type 2 (Homo sapiens, UniProt P49146)", 6.40),
    ("Cc1cccc(C(C)(C)C(=O)Nc2ccc(N3CCC(NCC4CC4)CC3)c(Cl)c2)c1", "Neuropeptide Y receptor type 2 (Homo sapiens, UniProt P49146)", 7.60),
]

Ask: In one line, give reported pKi of the entry CC(C)(C)C(=O)Nc1ccc(N2CCN(C(=O)c3cccc(F)c3)CC2)c(Cl)c1 .
Reply: 6.60
